The origin of these recorded values is the supplement of paper PMC7877785.

- Assay Name: self-splicing fitness, log relative to wild type (ln ratio); higher = more splicing; Tetrahymena group I intron in knt gene, E. coli kanamycin selection, DiMSum; sequences stand for … in CUCUCU…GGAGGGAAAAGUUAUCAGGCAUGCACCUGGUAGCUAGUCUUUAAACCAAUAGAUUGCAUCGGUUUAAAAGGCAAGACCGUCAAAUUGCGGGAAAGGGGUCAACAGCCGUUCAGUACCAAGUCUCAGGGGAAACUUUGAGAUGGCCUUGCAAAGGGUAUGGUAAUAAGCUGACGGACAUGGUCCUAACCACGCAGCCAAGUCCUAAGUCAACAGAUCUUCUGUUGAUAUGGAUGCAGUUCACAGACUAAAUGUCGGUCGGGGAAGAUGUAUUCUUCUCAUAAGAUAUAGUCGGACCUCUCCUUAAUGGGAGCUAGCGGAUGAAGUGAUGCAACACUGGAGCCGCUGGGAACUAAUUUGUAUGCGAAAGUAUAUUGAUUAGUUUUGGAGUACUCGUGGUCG;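 also: selection with 25 µg/mL kanamycin versus none on LB agar overnight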
- Experimental Conditions: 37 °C
Kindly state self-splicing fitness (ln) for each of the entries shown.

In: Report self-splicing fitness (ln) for CUGAAGCAAUAUUACGUCAC
Out: -2.73

In: Report self-splicing fitness (ln) for GCUAAGCAAUAUUACGGCUU
Out: -0.973

In: Report self-splicing fitness (ln) for CGACAGCAAUAUUACGUUGU
Out: -3.25

In: Report self-splicing fitness (ln) for ACCUAGCAAUAUUACGUCAC
Out: -1.83

In: Report self-splicing fitness (ln) for GGAAAGCAAUAUUACGUUGG
Out: -2.83

In: Report self-splicing fitness (ln) for CAAUAGCAAUAUUACGCACU
Out: -1.82

In: Report self-splicing fitness (ln) for CGACAGCAAUAUUACGAAGA
Out: -2.09

In: Report self-splicing fitness (ln) for AGAGAGCAAUAUUACGUGCU
Out: -1.44

In: Report self-splicing fitness (ln) for UUUGAGCAAUAUUACGUUCU
Out: -2.58

In: Report self-splicing fitness (ln) for AAGCAGCAAUAUUACGGCUG
Out: -2.75

In: Report self-splicing fitness (ln) for GCGAAGCAAUAUUACGUCUG
Out: -1.81

In: Report self-splicing fitness (ln) for CUGCAGCAAUAUUACGUACA
Out: -1.43

In: Report self-splicing fitness (ln) for CAAGAGCAAUAUUACGUUGU
Out: -2.26

In: Report self-splicing fitness (ln) for AAUCAGCAAUAUUACGGGUA
Out: 0.17

In: Report self-splicing fitness (ln) for UCGUAGCAAUAUUACGAUAA
Out: -1.72

In: Report self-splicing fitness (ln) for GCAAAGCAAUAUUACGAGAG
Out: -1.89

In: Report self-splicing fitness (ln) for CUUAAGCAAUAUUACGAGAA
Out: -2.91

In: Report self-splicing fitness (ln) for GACCAGCAAUAUUACGUGCC
Out: -0.217

###

- Assay Name: self-splicing fitness, log relative to wild type (ln ratio); higher = more splicing; Tetrahymena group I intron in knt gene, E. coli kanamycin selection, DiMSum; sequences stand for … in CUCUCU…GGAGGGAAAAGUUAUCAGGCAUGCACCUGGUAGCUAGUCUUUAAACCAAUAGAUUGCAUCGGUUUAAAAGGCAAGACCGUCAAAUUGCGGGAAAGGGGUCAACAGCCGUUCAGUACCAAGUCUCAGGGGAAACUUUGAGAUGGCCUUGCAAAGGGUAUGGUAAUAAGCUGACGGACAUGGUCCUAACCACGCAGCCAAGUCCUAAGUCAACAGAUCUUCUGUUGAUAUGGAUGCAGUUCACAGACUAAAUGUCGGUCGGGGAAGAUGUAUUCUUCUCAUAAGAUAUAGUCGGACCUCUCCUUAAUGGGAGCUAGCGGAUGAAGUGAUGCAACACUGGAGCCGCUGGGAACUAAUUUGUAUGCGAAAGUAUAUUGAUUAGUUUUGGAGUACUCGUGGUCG
- Experimental Conditions: 37 °C
Parameter Measured: self-splicing fitness (ln)
I'd appreciate a reply containing only the number, no unit.

In: Report self-splicing fitness (ln) for UACUAGCAAUAUUACGCUCG
Out: 0.0226

In: Report self-splicing fitness (ln) for AGGAAGCAAUAUUACGUGGA
Out: -1.16

In: Report self-splicing fitness (ln) for GCUGAGCAAUAUUACGGGUC
Out: -1.36

In: Report self-splicing fitness (ln) for CCUCAGCAAUAUUACGUGGU
Out: -2.5

In: Report self-splicing fitness (ln) for UGCGAGCAAUAUUACGUGUC
Out: -2.01

In: Report self-splicing fitness (ln) for ACCGAGCAAUAUUACGACUG
Out: -1.04

In: Report self-splicing fitness (ln) for CGUGAGCAAUAUUACGACAU
Out: -2.19

In: Report self-splicing fitness (ln) for CAUCAGCAAUAUUACGGUUC
Out: -0.935

In: Report self-splicing fitness (ln) for AGCGAGCAAUAUUACGCGGG
Out: -2.54

###

- Assay Name: self-splicing fitness, log relative to wild type (ln ratio); higher = more splicing; Tetrahymena group I intron in knt gene, E. coli kanamycin selection, DiMSum; sequences stand for … in CUCUCU…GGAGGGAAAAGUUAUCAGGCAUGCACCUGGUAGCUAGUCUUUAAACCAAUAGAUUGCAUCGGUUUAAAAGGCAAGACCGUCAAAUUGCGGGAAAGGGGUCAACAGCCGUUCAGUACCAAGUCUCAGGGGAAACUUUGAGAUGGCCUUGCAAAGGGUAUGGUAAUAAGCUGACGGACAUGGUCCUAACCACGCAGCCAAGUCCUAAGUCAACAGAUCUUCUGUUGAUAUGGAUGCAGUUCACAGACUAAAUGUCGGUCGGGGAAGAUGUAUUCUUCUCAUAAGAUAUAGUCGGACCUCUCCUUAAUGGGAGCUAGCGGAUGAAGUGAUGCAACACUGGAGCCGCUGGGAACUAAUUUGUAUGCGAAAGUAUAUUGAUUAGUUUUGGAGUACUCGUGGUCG
- Experimental Conditions: 37 °C
Parameter Measured: self-splicing fitness (ln)

In: Report self-splicing fitness (ln) for GCGAAGCAAUAUUACGGGUG
Out: -1.88

In: Report self-splicing fitness (ln) for CGGCAGCAAUAUUACGAAGU
Out: -0.302

In: Report self-splicing fitness (ln) for UUCCAGCAAUAUUACGCUGG
Out: -2.51

###

- Assay Name: self-splicing fitness, log relative to wild type (ln ratio); higher = more splicing; Tetrahymena group I intron in knt gene, E. coli kanamycin selection, DiMSum; sequences stand for … in CUCUCU…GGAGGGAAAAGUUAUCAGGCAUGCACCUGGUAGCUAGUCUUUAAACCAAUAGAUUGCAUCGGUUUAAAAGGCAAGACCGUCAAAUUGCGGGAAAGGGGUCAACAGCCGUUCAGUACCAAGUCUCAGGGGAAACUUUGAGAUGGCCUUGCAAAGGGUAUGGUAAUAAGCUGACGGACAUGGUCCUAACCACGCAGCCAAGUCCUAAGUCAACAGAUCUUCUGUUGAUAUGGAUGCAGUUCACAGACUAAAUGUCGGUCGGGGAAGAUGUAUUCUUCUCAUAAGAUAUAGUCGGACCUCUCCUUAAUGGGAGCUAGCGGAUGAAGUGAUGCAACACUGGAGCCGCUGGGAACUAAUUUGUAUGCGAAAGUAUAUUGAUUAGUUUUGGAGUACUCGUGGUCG
- Experimental Conditions: 37 °C
Parameter Measured: self-splicing fitness (ln)
I'd appreciate a reply containing only the number, no unit.

In: Report self-splicing fitness (ln) for AUCCAGCAAUAUUACGUCAG
Out: -2.15

In: Report self-splicing fitness (ln) for CAGAAGCAAUAUUACGGAGU
Out: -3.14

In: Report self-splicing fitness (ln) for CAUGAGCAAUAUUACGAAAA
Out: -1.22

In: Report self-splicing fitness (ln) for UUCAAGCAAUAUUACGGGAG
Out: -0.95

In: Report self-splicing fitness (ln) for CCCAAGCAAUAUUACGCGCC
Out: -1.59

In: Report self-splicing fitness (ln) for GCAGAGCAAUAUUACGUAUA
Out: -2.76

In: Report self-splicing fitness (ln) for AAAAAGCAAUAUUACGUUAA
Out: -1.05

In: Report self-splicing fitness (ln) for GGGAAGCAAUAUUACGGUCA
Out: -0.237

In: Report self-splicing fitness (ln) for AUCUAGCAAUAUUACGGUAA
Out: -0.736

In: Report self-splicing fitness (ln) for UAACAGCAAUAUUACGAACU
Out: -0.651

In: Report self-splicing fitness (ln) for UACGAGCAAUAUUACGUCAC
Out: -2.09

In: Report self-splicing fitness (ln) for ACUAAGCAAUAUUACGCGAG
Out: -0.355

In: Report self-splicing fitness (ln) for GUUUAGCAAUAUUACGUUGC
Out: -2.59

In: Report self-splicing fitness (ln) for UUUAAGCAAUAUUACGGUCU
Out: -1.66

In: Report self-splicing fitness (ln) for GAAUAGCAAUAUUACGUCUC
Out: -0.137

In: Report self-splicing fitness (ln) for CGUUAGCAAUAUUACGGUUU
Out: -2.44

In: Report self-splicing fitness (ln) for GGUCAGCAAUAUUACGGCGG
Out: -0.274

In: Report self-splicing fitness (ln) for CCCCAGCAAUAUUACGUUAU
Out: -3.29

In: Report self-splicing fitness (ln) for UUGAAGCAAUAUUACGCAUG
Out: -0.519

In: Report self-splicing fitness (ln) for UAUCAGCAAUAUUACGCCGU
Out: 0.487

In: Report self-splicing fitness (ln) for AUAUAGCAAUAUUACGUCAA
Out: -2.06

In: Report self-splicing fitness (ln) for AGGUAGCAAUAUUACGUUCC
Out: -0.623

In: Report self-splicing fitness (ln) for UAUCAGCAAUAUUACGGCAG
Out: 0.0916

In: Report self-splicing fitness (ln) for CCUAAGCAAUAUUACGUCGG
Out: -1.51

In: Report self-splicing fitness (ln) for CGAGAGCAAUAUUACGCUAG
Out: -2.77

In: Report self-splicing fitness (ln) for UAUGAGCAAUAUUACGGACU
Out: -2.46

In: Report self-splicing fitness (ln) for GGCCAGCAAUAUUACGCUCU
Out: -0.0247

In: Report self-splicing fitness (ln) for UAUCAGCAAUAUUACGGUCA
Out: 0.0755

In: Report self-splicing fitness (ln) for ACAGAGCAAUAUUACGAUUG
Out: -3.3

In: Report self-splicing fitness (ln) for AUUCAGCAAUAUUACGUGCA
Out: -0.47

In: Report self-splicing fitness (ln) for GAAGAGCAAUAUUACGUCAU
Out: -2.13

In: Report self-splicing fitness (ln) for AUAAAGCAAUAUUACGCGUA
Out: -0.0465

In: Report self-splicing fitness (ln) for GCUUAGCAAUAUUACGAGUC
Out: -2.22

In: Report self-splicing fitness (ln) for AUAAAGCAAUAUUACGACGA
Out: 0.701

In: Report self-splicing fitness (ln) for GGCGAGCAAUAUUACGAGGC
Out: -3.02

In: Report self-splicing fitness (ln) for GGCUAGCAAUAUUACGCGUG
Out: -1.13

In: Report self-splicing fitness (ln) for GCGAAGCAAUAUUACGUGGU
Out: -2.92

In: Report self-splicing fitness (ln) for UGUGAGCAAUAUUACGGUCC
Out: -2.09

In: Report self-splicing fitness (ln) for UUACAGCAAUAUUACGCGUU
Out: -1.95

In: Report self-splicing fitness (ln) for GACCAGCAAUAUUACGUCAA
Out: -1.06

In: Report self-splicing fitness (ln) for CUUAAGCAAUAUUACGGUCG
Out: 0.0238

In: Report self-splicing fitness (ln) for AACGAGCAAUAUUACGGCAC
Out: -1.89

In: Report self-splicing fitness (ln) for UUAAAGCAAUAUUACGUGCU
Out: -0.057

In: Report self-splicing fitness (ln) for GUGUAGCAAUAUUACGUGGG
Out: -4.08

In: Report self-splicing fitness (ln) for GCUAAGCAAUAUUACGAAGC
Out: -0.413

In: Report self-splicing fitness (ln) for AUUAAGCAAUAUUACGGUGU
Out: -0.653

In: Report self-splicing fitness (ln) for GAGGAGCAAUAUUACGAGUA
Out: -1.51

In: Report self-splicing fitness (ln) for GGAGAGCAAUAUUACGGCCU
Out: -1.19
